Hello, the source for this data is the supplement of paper PMC10567573, in case you need it.

protein stability index values by entry
B1: CHMP4C (parent)
chain: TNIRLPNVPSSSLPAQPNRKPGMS

variants of: B1; test: protein stability index of a GFP-peptide fusion (GPS, HEK-293T) (PSI 1-6); higher = more stable; settings: c terminus: a fixed tail appended;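 also: lentivirally expressed fusions sorted by FACS into six bins by GFP to DsRed ratio, PSI derived from sequencing read proportions per bin multiplied by bin number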
property: protein stability index

INSERT INTO assay_data (variant_descriptor, value_observed) VALUES
  ('R4S', 4.29),
  ('L13T', 5.11),
  ('S11N', 4.19),
  ('S12P', 4.34),
  ('S24D', 3.96),
  ('L13C', 4.47),
  ('Q16A', 4.7),
  ('V8H', 4.77),
  ('P21L', 4.29),
  ('V8Y', 4.02),
  ('R19T', 4.57);
